# ASSAYED TARGET: VEGFR2 (Homo sapiens (Human))
# Sequence (P35968 20-1356): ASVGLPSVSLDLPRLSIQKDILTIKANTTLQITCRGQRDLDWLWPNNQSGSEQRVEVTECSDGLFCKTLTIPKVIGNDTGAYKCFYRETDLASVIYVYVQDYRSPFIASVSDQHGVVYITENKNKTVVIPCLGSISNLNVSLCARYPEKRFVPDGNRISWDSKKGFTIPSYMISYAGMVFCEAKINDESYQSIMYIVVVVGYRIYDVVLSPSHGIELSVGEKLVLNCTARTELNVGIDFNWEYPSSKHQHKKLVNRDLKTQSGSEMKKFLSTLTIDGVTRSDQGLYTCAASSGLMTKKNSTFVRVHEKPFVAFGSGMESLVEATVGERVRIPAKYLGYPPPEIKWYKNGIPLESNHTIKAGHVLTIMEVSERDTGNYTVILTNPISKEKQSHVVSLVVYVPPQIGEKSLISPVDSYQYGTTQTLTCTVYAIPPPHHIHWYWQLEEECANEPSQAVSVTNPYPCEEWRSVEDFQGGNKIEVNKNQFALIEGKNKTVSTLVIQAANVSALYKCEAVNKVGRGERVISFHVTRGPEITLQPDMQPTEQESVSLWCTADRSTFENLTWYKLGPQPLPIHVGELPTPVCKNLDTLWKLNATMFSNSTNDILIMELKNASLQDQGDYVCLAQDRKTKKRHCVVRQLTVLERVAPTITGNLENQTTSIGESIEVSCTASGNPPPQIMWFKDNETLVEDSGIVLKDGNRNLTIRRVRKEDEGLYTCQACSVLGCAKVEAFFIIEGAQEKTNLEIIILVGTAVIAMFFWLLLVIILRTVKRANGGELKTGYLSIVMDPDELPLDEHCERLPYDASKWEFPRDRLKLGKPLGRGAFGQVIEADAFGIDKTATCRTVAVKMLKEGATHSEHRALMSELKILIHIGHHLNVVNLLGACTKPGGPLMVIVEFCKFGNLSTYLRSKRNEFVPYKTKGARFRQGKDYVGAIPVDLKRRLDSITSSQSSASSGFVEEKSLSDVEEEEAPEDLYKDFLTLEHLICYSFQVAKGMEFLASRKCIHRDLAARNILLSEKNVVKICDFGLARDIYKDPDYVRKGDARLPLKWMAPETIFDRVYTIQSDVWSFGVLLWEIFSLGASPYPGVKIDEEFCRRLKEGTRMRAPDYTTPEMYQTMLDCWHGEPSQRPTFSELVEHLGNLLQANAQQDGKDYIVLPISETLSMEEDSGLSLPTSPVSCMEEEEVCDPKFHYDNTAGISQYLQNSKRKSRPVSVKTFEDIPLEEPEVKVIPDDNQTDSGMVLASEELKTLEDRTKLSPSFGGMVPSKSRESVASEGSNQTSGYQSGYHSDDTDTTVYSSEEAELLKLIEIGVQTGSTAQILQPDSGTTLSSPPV
# RUN DESCRIPTION: VEGFR2 Cellular Assay (FLIPR, VEGF induced intracellular calcium in HUVEC)
# Type: cell-based
# APPLIED CONDITIONS: VEGF165 stimulation (10 ng/mL)
ASSAY READOUT: IC50 (nM)
Could you give me the number in nM? Just the number is fine.

// IC50 lookup, compound = O=C(Nc1cccc(C(F)(F)F)c1)c1cccc(N2CCc3c(cnc4ccnn34)C2)c1 , result: 70

// IC50 lookup, compound = CC(C)c1cccc(NC(=O)c2cccc(N3CCc4c(cnc5ccnn45)C3)c2)c1 , result: 26

---

# ASSAYED TARGET: PDGFRβ (Homo sapiens (Human), UniProt P09619)
# RUN DESCRIPTION: PDGFRβ Cellular Assay (FLIPR, PDGF-induced intracellular calcium in NHDF-Ad)
# Format: cell-based
# APPLIED CONDITIONS: PDGF-BB stimulation (30 ng/mL)
# Procedure: NHDF-Ad (Normal Human Dermal Fibroblasts, Adult; Lonza) were seeded in 384-well fibronectin coated black-walled plates overnight @ 37° C./5% CO2. Cells were loaded with calcium indicator Fluo-4 for 45 minutes at 37° C. […] Changes in fluorescence at 516 nm were measured simultaneously in all 384 wells using a cooled CCD camera. Data were generated by determining max-min fluorescence levels for unstimulated, stimulated, and drug treated samples. […]
# Sequence (P09619 33-1106): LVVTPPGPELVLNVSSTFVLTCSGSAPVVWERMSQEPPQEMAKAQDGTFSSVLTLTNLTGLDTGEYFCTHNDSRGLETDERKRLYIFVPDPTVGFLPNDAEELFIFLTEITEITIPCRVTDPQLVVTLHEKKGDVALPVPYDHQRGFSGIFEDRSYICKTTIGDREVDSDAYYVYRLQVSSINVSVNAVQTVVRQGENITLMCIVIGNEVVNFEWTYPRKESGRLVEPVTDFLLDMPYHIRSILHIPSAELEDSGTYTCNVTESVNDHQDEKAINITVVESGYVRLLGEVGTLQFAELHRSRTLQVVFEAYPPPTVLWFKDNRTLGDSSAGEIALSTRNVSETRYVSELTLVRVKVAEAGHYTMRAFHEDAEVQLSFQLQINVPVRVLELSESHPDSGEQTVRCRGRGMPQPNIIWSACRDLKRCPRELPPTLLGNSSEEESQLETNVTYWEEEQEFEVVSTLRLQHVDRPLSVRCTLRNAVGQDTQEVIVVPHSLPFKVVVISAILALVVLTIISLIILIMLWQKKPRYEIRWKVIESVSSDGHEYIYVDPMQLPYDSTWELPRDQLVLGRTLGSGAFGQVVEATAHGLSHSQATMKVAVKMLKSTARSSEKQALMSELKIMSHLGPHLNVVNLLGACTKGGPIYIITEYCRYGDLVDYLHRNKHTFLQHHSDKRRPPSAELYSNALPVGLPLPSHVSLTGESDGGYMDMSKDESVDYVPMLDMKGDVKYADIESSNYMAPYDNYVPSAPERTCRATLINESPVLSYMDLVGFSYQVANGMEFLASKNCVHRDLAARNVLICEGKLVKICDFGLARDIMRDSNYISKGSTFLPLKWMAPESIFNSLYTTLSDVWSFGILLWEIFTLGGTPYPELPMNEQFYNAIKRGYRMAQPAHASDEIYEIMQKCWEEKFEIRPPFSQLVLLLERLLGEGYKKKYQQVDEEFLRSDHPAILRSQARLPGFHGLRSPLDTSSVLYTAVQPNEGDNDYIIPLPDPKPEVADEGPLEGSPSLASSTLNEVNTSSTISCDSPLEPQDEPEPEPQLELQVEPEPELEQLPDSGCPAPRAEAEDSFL
ASSAY READOUT: IC50

// IC50 lookup, compound = O=C(Nc1cccc(C(F)(F)F)c1)c1cccc(N2CCc3c(cnc4ccnn34)C2)c1 [Example 4] , result: 192 nM

---

# ASSAYED TARGET: PDGFRβ (Homo sapiens (Human))
# RUN DESCRIPTION: PDGFRβ Kinase Assay (biochemical, ELISA)
# APPLIED CONDITIONS: purified cytoplasmic domain PDGFR-b protein, 36 μM ATP
# Sequence (P09619 554-1106): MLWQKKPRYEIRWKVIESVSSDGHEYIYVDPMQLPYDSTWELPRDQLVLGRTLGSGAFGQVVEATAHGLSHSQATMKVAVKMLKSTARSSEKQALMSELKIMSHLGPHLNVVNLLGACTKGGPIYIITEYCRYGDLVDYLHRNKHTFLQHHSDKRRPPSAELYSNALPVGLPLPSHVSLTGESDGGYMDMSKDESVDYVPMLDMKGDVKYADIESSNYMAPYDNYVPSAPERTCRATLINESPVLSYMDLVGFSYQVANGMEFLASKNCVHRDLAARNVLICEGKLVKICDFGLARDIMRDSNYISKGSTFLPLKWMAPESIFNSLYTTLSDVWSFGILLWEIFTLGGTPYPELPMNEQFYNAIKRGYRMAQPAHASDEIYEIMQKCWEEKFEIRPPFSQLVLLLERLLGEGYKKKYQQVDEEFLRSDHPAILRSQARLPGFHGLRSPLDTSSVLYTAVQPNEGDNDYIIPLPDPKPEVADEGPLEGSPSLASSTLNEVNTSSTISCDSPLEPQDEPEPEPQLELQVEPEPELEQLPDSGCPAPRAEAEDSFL
ASSAY READOUT: log10(IC50) (log10 of the value in nM)
For clarity, the numbers are log10 values of IC50 expressed in nM.

// log10(IC50) lookup, compound = O=C(Nc1cccc(N2CCc3c(cnc4ccnn34)C2)c1)c1cccc(C(F)(F)F)c1 , result: 1.32

// log10(IC50) lookup, compound = O=C(Nc1cccc(C(F)(F)F)c1)c1cccc(N2CCc3c(cnc4ccnn34)C2)c1 , result: 1.43

// log10(IC50) lookup, compound = O=C(Nc1cccc(N2CCc3c(cnc4ccnn34)C2)c1)c1ccccc1 , result: 2.31

// log10(IC50) lookup, compound = Cc1cccc(NC(=O)Nc2cccc(N3CCc4c(cnc5ccnn45)C3)c2)c1 , result: 1.51

// log10(IC50) lookup, compound = CC(C)c1cccc(NC(=O)c2cccc(N3CCc4c(cnc5ccnn45)C3)c2)c1 , result: 1.30

---

Record form. Attribute: IC50. Fill in for each entry.
# ASSAYED TARGET: VEGFR2 (KDR) (Homo sapiens (Human))
# Sequence (P35968 786-1356): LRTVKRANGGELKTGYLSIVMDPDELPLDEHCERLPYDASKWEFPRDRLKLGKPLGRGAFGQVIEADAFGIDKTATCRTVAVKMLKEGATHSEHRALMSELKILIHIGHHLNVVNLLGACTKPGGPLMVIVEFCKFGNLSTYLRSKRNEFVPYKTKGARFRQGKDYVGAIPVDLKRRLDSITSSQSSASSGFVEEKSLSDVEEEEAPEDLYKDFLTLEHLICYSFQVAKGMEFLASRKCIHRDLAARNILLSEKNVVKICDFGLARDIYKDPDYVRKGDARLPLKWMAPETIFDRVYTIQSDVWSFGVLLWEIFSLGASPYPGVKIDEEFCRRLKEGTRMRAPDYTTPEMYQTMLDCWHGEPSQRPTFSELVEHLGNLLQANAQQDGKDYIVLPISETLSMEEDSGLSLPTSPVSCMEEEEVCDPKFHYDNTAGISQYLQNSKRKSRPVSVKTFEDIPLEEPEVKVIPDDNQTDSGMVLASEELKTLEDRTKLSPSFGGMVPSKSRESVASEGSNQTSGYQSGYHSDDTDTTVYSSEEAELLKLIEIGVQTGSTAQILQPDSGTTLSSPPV
# RUN DESCRIPTION: VEGFR2 Kinase Assay (biochemical KDR kinase assay, ELISA)
# APPLIED CONDITIONS: purified cytoplasmic domain KDR protein, 2.7 μM ATP
Could you give me the number in nM? Just the number is fine.

// IC50 lookup, compound = CC(C)c1cccc(NC(=O)c2cccc(N3CCc4c(cnc5ccnn45)C3)c2)c1 , result: 8

// IC50 lookup, compound = O=C(Nc1cccc(N2CCc3c(cnc4ccnn34)C2)c1)c1ccccc1 , result: 101

// IC50 lookup, compound = O=C(Nc1cccc(C(F)(F)F)c1)c1cccc(N2CCc3c(cnc4ccnn34)C2)c1 , result: 6

// IC50 lookup, compound = Cc1cccc(NC(=O)Nc2cccc(N3CCc4c(cnc5ccnn45)C3)c2)c1 , result: 27

// IC50 lookup, compound = O=C(Nc1cccc(N2CCc3c(cnc4ccnn34)C2)c1)c1cccc(C(F)(F)F)c1 , result: 6
